Task for the reader: assign each of the following molecules its reported GI50.
Tested on: OVCAR-4
run-description: NCI tumour cell line growth inhibition, 48 h
The source made the active and inactive calls. Cut-off read from the data, not from the text of the source: active = GI50 up to about 1.1 µM and inactive = higher.

# get_value(readout= GI50, system= OVCAR-4) for "O=[N+]([O-])c1ccc(/N=N\c2c(O)ccc3ccccc23)c([N+](=O)[O-])c1"
> 100 µM (inactive)

# get_value(readout= GI50, system= OVCAR-4) for "Cc1ns/c(=N\C(=S)N(C)C)n1C"
> 100 µM (inactive)

# get_value(readout= GI50, system= OVCAR-4) for "Clc1ccc(Cl)c(Nc2ccnc(SCc3ccccc3)n2)c1"
> 100 µM (inactive)

# get_value(readout= GI50, system= OVCAR-4) for C[N+](C)(C)CCOP(=O)(O)OP(=O)([O-])OCC1CCC(n2ccc(N)nc2=O)O1 (stereo not given)
> 100 µM (inactive)

# get_value(readout= GI50, system= OVCAR-4) for N#CC1CCN2N=C(c3ccccc3)SC12c1ccccc1 (stereo not given)
76.7 µM (inactive)

# get_value(readout= GI50, system= OVCAR-4) for "CC(C)=C=CP(=O)(O)c1ccccc1"
> 100 µM (inactive)

# get_value(readout= GI50, system= OVCAR-4) for "O=[N+]([O-])c1ccc2nc3c(nc2c1)-c1c2ccccc2cc2cccc-3c12"
24.3 µM (inactive)

# get_value(readout= GI50, system= OVCAR-4) for "O=C1C=CC(=C(c2ccccc2)c2ccc(O)cc2)C=C1"
14.3 µM (inactive)

# get_value(readout= GI50, system= OVCAR-4) for "Cc1c(S(=O)(=O)N/C(=N\O)Nc2ccc(Cl)cc2)sc2ccc(Cl)cc12"
16.9 µM (inactive)

# get_value(readout= GI50, system= OVCAR-4) for CCCCCC(O)C(O)CCC[C@H](O)[C@H]1CC[C@H]([C@H]2CC[C@H]([C@H](O)CCCCCCCCCCCCC3=C[C@H](C)OC3=O)O2)O1 (stereo not given in full)
5.11 µM (inactive)

====

Task for the reader: assign each of the following compounds its reported GI50.
Test system: CCRF-CEM
run-description: NCI tumour cell line growth inhibition, 48 h
Calls of active or inactive are those of the source. No stated cut-off is given here; in the data, active = GI50 up to about 1.1 µM and inactive = higher.

What GI50 value was documented for this compound, "Cc1c2cccc-2ccc2c1[nH]c1ccc(Br)cc12" ?
3.12 µM (inactive)

What GI50 value was documented for this compound, "CSC1=C(C)C(/C=N/Nc2ccc([N+](=O)[O-])cc2)=C(C)N(c2ccccc2)S1(=O)=O" ?
> 100 µM (inactive)

What GI50 value was documented for this compound, CCOC(=O)C1=C(C)N(C)C(=S)NC1c1cccc(O)c1 (stereo unspecified) ?
21.4 µM (inactive)

What GI50 value was documented for this compound, COc1ccc(COCC[C@H](C)OC2OC(CO)C(O)C(O)C2O)cc1 (stereo partly specified) ?
> 100 µM (inactive)

What GI50 value was documented for this compound, COc1cc(OC)c2c(c1-c1ccc(C)cc1)CC(C)N(Cc1ccccc1)[C@H]2C (stereo partly specified) ?
7.76 µM (inactive)

What GI50 value was documented for this compound, CCOC1C=CCCO1 (stereo unspecified) ?
> 100 µM (inactive)

====

Task for the reader: assign each of the following compounds its reported GI50.
System: OVCAR-4
run-description: NCI tumour cell line growth inhibition, 48 h
Active and inactive are the calls of the source. No stated cut-off is given here; in the data, active = GI50 up to about 1.1 µM and inactive = higher.

What GI50 value was documented for this compound, COC(=O)CCC(NC(=S)N/N=C(\C)c1ccc[nH]1)C(=O)OC (stereo unspecified) ?
> 100 µM (inactive)

What GI50 value was documented for this compound, "Cc1cccc(C)c1NC(=O)C(=O)CC(=O)c1cccc([N+](=O)[O-])c1" ?
> 100 µM (inactive)

What GI50 value was documented for this compound, "CN(C)CCC(CCN(C)C)=NOC(=O)c1ccccc1" ?
> 100 µM (inactive)

What GI50 value was documented for this compound, "Cc1[nH]c2cc([N+](=O)[O-])ccc2c1[N+](=O)[O-]" ?
14.1 µM (inactive)

What GI50 value was documented for this compound, Cc1cc(Cl)ccc1NC(=O)CCCC(=O)C1CCC/C1=N\NC(=O)CC#N (stereo unspecified) ?
> 100 µM (inactive)

What GI50 value was documented for this compound, CC(=O)/C=C1/c2ccccc2N(C(C)=O)C1O (stereo unspecified) ?
> 100 µM (inactive)

What GI50 value was documented for this compound, COc1ccc(C2=C(Cl)c3cc(OC)c(OC)cc3C2OC)cc1OC (stereo unspecified) ?
> 100 µM (inactive)

What GI50 value was documented for this compound, "CCOc1cc2c[n+](C)c3c4cc(OC)c(OC)cc4ccc3c2cc1OC" ?
> 100 µM (inactive)

What GI50 value was documented for this compound, Cc1ccc(C)c(NC(=O)C(=O)C2C(=O)N(c3ccccc3)N=C2N)c1 (stereo unspecified) ?
> 100 µM (inactive)

What GI50 value was documented for this compound, "O=C(/C(=C\c1ccccc1)CN1CCOCC1)c1ccc(Br)cc1" ?
2.77 µM (inactive)

What GI50 value was documented for this compound, "CCN(CC)c1ccc(/N=C2/C=CC(=C(C#N)C#N)c3ccccc32)c(C)c1" ?
1.88 µM (inactive)
